The reader will find pIC50 measurements below, all made with Rho-associated protein kinase 1 (Homo sapiens, UniProt Q13464).
Sequence (Q13464 whole entry): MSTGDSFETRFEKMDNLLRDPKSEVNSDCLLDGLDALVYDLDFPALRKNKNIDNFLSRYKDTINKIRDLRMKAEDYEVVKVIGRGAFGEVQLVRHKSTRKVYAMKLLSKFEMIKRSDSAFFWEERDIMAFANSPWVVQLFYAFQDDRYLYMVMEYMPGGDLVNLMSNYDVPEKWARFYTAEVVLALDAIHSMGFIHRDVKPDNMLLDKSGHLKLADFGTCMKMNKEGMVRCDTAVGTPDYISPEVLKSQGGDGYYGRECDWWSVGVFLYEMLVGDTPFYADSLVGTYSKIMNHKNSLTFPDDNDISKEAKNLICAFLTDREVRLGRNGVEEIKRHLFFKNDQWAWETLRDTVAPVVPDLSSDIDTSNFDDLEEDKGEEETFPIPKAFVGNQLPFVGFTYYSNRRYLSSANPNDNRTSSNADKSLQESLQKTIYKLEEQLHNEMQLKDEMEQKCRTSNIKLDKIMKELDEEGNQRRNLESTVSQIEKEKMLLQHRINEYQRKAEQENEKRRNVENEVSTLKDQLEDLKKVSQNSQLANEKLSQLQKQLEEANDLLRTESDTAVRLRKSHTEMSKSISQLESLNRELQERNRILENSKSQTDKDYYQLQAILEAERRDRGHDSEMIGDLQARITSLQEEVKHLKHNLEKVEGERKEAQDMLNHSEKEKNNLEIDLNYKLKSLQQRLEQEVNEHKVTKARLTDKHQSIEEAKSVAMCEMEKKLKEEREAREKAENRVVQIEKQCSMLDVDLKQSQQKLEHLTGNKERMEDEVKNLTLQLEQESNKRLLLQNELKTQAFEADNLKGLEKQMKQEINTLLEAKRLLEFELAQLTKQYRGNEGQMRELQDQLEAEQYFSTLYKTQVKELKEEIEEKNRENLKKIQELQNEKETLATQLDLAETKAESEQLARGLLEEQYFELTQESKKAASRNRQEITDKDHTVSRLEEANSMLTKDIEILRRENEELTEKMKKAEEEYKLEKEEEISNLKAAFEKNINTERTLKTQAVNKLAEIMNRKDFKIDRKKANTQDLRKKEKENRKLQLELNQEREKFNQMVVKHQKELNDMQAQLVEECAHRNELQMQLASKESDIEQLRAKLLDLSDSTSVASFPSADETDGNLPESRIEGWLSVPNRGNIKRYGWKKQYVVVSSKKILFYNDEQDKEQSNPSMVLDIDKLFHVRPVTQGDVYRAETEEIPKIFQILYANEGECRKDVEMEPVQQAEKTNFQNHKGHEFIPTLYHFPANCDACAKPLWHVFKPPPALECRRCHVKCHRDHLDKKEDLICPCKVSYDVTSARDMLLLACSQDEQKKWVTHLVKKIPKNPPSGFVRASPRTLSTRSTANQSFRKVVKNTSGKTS
pIC50: −log10 of the molar value.

Example entries and their recorded answers appear below.
O=C(Nc1ccc(-c2n[nH]c(=O)c3ccccc23)cc1)c1nn(CC2CCNCC2)c2ccccc12: > 7.00
O=C(Nc1ccc(-c2n[nH]c(=O)c3ccccc23)cc1)c1cc2ncccn2n1: > 7.00

Now, please, on to the next compound.
Task: Hello, I am looking for reported pIC50 with Rho-associated protein kinase 1 (Homo sapiens, UniProt Q13464) for CCCn1cc(C(=O)Nc2ccc(-c3n[nH]c(=O)c4ccccc34)cc2)cn1 . Could you help?
Result: > 7.00
